- target or system: Carbonic anhydrase 2 (Homo sapiens, UniProt P00918)

{"compound": "NS(=O)(=O)c1ccc(-c2ccccc2)cc1 [4-(phenyl)-bezenesulfonamide (4a)]", "measurement units": "nM", "Ki": 0.8}
